tested on: PPARg DBDmut IVT, anti-PPARg (DBD mutation: PPARg1 K132A/R137A, NR concentration 270 nM); experiment: PBM binding z-score (relative to random genomic background probes); higher = stronger binding; sequences stand for … in GC…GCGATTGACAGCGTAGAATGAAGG
Please respond with reported PBM binding z-score for every item in the list.
Would you mind answering with just the numeric figure?

// lookup PBM binding z-score for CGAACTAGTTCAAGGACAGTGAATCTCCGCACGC
-0.503

Another: CGAATTAGGTCAAAGGACAGTGAAAGGCGACGTA
2.44

Next sequence up: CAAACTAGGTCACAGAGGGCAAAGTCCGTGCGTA
4.71

Thanks! And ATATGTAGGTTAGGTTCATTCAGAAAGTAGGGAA ?
2.4

Then what about the sequence TCTAGTAGGTCACGGAGGTCACACACGACGGGTA ?
4.54

And then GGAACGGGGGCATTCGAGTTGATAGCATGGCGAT , what is it?
10.9

Next up: ATATGTAGGTTAGCTGGGGTCATTCCGACTAGGC
0.994

Next sequence: CTAACTAGGTCACAGAGGTCAAAGTCCGTGCGTA
5.22

What about this sequence? AGTCAAAATTCACTAGGTAACGTAAGATTCAGCT
0.716

Also check AGTCAAAGTTCAGGACGAGGTACCGTAAAGCACG
-0.427

Okay, and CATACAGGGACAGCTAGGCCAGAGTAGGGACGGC ?
0.371

Entry to check: CTCGAAAGGTGGTGCTCAGGTGAGTATACCAAAC
-0.314

Also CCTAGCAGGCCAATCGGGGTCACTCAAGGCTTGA ?
-1.21

Also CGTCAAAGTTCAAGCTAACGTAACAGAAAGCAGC ?
1.15

Same read-out for AGTCAAAGTTCATCTTGGTAACGTAAGATATGCT ?
1.1

ATATGTAGGTTAGGGTCATTCGGAAAGTAGGGAA , same question.
4.65

Then this sequence: CGAACTAGGTCACCAGGACAGTGATGAGGTTGGA
0.614

Same read-out for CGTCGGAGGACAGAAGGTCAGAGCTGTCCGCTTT ?
-2.14

CCTACGGGGCCAAAGGTCATTGATTCCAATGCTC ?
-0.159

Do the same for CCTAGTTGGTCAAGGTCTCACACGCTATAGGTAC please
0.765

Lookup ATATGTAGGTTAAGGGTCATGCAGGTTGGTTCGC
2.56

Please give the result for CCTACTGGGCCAAAGGTCATTGACTCCAATGCTC too.
0.152

How about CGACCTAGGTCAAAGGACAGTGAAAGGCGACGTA ?
-0.949

Try CGACCTAGGTCACCAGGACAGTGAAGAGGTTGGA next.
-0.593

# repeat for ATATGTAGGTTAGGGTCATTCTGAAAGTAGGGAA
1.97

Request: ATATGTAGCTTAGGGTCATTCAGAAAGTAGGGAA
1.21

----------
test system: PPARg DBDmut IVT, anti-PPARg (DBD mutation: PPARg1 K132A/R137A, NR concentration 270 nM); assay: PBM binding z-score (relative to random genomic background probes); higher = stronger binding; sequences stand for … in GC…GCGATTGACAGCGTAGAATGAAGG
EXPERIMENTAL_READOUT: PBM binding z-score
// no unit, no text: just the number

Look at this sequence and give its reported PBM binding z-score. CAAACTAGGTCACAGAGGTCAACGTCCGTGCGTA
5.15

Check CGAACTAGGTCAGAACAGTACAGTGAAGGATGAT too.
3.58

Now consider ATATGTAGGTTACGGTCATTCAGAAAGTAGGGAA .
1.83

How about this sequence: AGAATGAGGTTAACAAAGATCAGGGAAACGCTTG
0.512

Same again, this time with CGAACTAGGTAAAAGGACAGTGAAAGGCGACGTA
0.0504

Item: CGTCCAAGGTCAATGCAAGGTCAGTGAAAGCATT
0.606

Same question for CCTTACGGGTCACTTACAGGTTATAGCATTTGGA please.
0.78

And for AATTCAGGGTCACTAGGCCAGAGTAGGTACGAAT ?
2.77

Queued: CGAACTAGGTCAACAGGACAGTGAAGAGGTTGGA
0.713

What do you have for CGAACTAGGTCAAAGGACAGTGAAAGGCGACGTA ?
3.54

Same question, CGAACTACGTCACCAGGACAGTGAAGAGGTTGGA this time
-0.216

Now the sequence CGAAATAGGTCAAAGGACAGTGAAAGGCGACGTA
0.994

Next sequence up: CAAACTAGGTCACGAAAGGGCAAAGTCGAATGAC
1.67

Now consider ACCAGCAGGCCAAGGGTCACTCAAGATTAGTCCG .
-0.244

Now give it for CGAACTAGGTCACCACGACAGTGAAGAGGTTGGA too.
4.26

Would you mind doing AGTCAAAGTTCATCAAGGTAACGTAAGATATGCT as well?
1.26

Moving on to the next sequence: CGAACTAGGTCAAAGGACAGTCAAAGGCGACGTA
2.46

Next sequence: CGTTCAAGGTCATAGGAGGTCAGTGAAGACAGAT
2.03

Try this sequence too: GATACAGGGTGAGCTAGAGGCCAGAGTATGGAAA
-0.828

Further, for CTTACTGGGCCAAAGGTCATTGATTCCAATGCTC ?
2.05

Okay, and CGAACTAGGTCAAAGGGCAGTGAAAGGCGACGTA ?
0.155

Continue with ATCTGTAGGTTATCGGGTCATTCAGTTTGCGCAT
1.76

Entry to check: CAAACTAGGTCACAGAGGTCAAACTCCGTGCGTA
2.43

Param item: AGTCAAAGTTGATCTAGGTAACGTAAGATATGCT
1.07

Would you mind doing CGTCCAAGGTCAAGGTGAGTGAAAGAGACTCGAA as well?
0.105

Try this sequence next: ATATGTAGGTTAGCTGGAGTCATTCAGACTAGGC
1.57

# repeat for CCTACTGGGCGAAGGTCATTGATCAGTCAAAGCA
-0.935

Continue with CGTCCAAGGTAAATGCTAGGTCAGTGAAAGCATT
-0.95

# iterate: AATACAGGGTCACTAGGTCAGAGTAGGTACGAAT
2.61

Next record, please: CGTCCAAGGTAAGAGAGGTCAGTGAATGCCGAGT
-1.45

And then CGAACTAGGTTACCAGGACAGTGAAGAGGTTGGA , what is it?
2.08

Repeat for the following sequence: ATATGTAGGTTAGGGTCAATCAGAAAGTAGGGAA
1.96

Then what about the sequence CCTACTGGGTCATTCAGAGGTCATTGATCATATG ?
0.698

Try this sequence next: CGAACTAGGTCACCAGGAGAGTGAAGAGGTTGGA
3.69

Same question for CCTTACGGGTCAAGGTTATACCACGGGTGGTACG please.
-0.205

Proceed to CGTCCAAGGTCAATGCTAGCTCAGTGAAAGCATT
-0.858

Same again, this time with CGAACTAGGTCACCAGGACAATGAAGAGGTTGGA
1.88

And ATATGTTGGTTAGGGTCATTCAGAAAGTAGGGAA ?
1.7

Queued: CAAACTAGGTCACGAAAGGTCAAATTCGAATGAC
2.38

Would you kindly repeat that for CCTACTGGGCCAAGGTCATTGCTCAGTCAAAGCA ?
-1.36

Thanks! And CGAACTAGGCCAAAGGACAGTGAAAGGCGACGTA ?
-0.194

CCTACTGGGCCACGAAAGGTCCTTGATTCAGTGA ?
-0.678

Same read-out for TTACAAAGGTGAAAGGTCGTTGATGCACGCCTTG ?
1.12

Also, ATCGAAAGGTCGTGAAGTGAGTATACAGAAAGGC please.
1.88

Next record, please: TAGCCTAGGTCAGATCGGGCGAGTATACGCTATA
-0.507

What do we get for CGAACTAGGTCATAGGACAGTGAAAGGCGACGTA ?
0.801

Proceed to AGTCAAAGGTCAGGACGAGGTAACGTAAAGCACG
0.49

Subsequent entry: CCTTACGGGTCTCTCCAGGTTATAGCATCGGAGT
-0.96

Now the same for ATATGGAGGTTAAGGGTCATTCAGGTTGGTTCGC
2.22

Let us now turn to CGAACTAGGTCAAAAGACAGTGAAAGGCGACGTA
0.23

Same thing, different sequence: CGAACTAGATCAAAGGACAGTGAAAGGCGACGTA
-0.617

----------
system: RARa:RXR (NR concentration 270 nM, RXRa partner concentration 90 nM); assay: PBM binding z-score (relative to random genomic background probes); higher = stronger binding; sequences stand for … in GC…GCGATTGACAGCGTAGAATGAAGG
EXPERIMENTAL_READOUT: PBM binding z-score
Number only, no unit.

// lookup PBM binding z-score for ATATGTAGGTTAGGGTCATGCAGAAAGTAGGGAA
5.05

Same thing, different sequence: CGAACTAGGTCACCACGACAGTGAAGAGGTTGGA
2.78

How about this sequence: CCTTACGGGCCACGAGGTTATAGCACGACGAGCG
1.06

// next record CGAACTAGGTCAAAGGACAGTGTAAGGCGACGTA
2.22

Can you handle TAGCCTAGGTCATAGGGCCAGTATAGTACGCATC next?
2.37

And then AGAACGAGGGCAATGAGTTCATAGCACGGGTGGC , what is it?
2.56

// repeat for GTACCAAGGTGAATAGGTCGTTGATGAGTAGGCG and report
1.72

Now the sequence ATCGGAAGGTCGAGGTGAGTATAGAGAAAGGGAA
1.59

CCTCGGAGGACACCAGGAGGTCAGAGCTGCCAGA ?
2.56

Then ATTTGTAGGTTAGGGTCATTCAGAAAGTAGGGAA ?
5.22

What do we get for CAATGTAGGTTAAGGGGGTCATTCAGTTTGAAAG ?
6.32

Continue with TCGATTAGGTTACGGGGGCATTCAGGGATGAAGA
3.51

Param item: AATACAGGGTCACTTGGCCAGAGTAGGTACGAAT
4.1

Consider next the sequence ATATGTAGGATATCGGGTCATTCAGTTTGCGCAT in the same way.
2.53

Try this sequence next: CCTGCTAGGTCAATGGTCAGCTAAAGCAGCTCGC
1.82

What do you have for CCGAGTAGGTTACGAGGGGGCATTCTGTGCGAAT ?
3.12

Quick one: GCATATAGGTAATTCAAGGTGAAAGTCCGATTGT
2.33

And the next one, ATCGAAATGTCGTGAGGTGAGTATACAGAAAGGC ?
0.27

CCGACGGGGGCAGAAAGGTTACCATACCATCCGG , same question.
3.91

Next entry: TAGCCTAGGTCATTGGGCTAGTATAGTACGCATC
1.91

How about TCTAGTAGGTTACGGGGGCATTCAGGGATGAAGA ?
3.63

Cool, now ATACCAAGGTGATCGTGAGTTCGTTGATACTAAC
0.619

Consider next the sequence ATATGTAGGTTAGGGTCATCCAGAAAGTAGGGAA in the same way.
5.12

Repeat with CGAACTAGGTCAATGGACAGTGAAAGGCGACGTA
1.18

Now give it for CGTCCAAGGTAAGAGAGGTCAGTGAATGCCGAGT too.
3.12

Input TAGCCTAGGTCATGCGGGCCAGTATAGTGTCGGC
2.44

Another sequence to check: CTATGTAGGTTAAGAGGGTCATTCAGTTTGAAAG
3.56

Proceed to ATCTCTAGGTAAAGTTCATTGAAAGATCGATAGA
2.76

Subsequent entry: CCTACTGGGCCAATGTCATTGATCAGTCAAAGCA
-0.51

Check AGTCGGAGGACAAAGGTCAGAGCTACGCCAGTGA too.
5.06

Same thing, different sequence: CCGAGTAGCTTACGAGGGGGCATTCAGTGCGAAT
1.67

Also ATCTAAAGGTCGAAGGTGAGTATACCCACCCGAA ?
4.15

Now give it for ACTAATTGGTCAGCTGAGGTCACACACAATTCGG too.
4.72

Would you mind doing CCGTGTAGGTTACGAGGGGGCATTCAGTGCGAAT as well?
3.23

What about this sequence? GCTATTAGGTGAAAGGGCAACCGAATGATTCTCG
2.47

Further, for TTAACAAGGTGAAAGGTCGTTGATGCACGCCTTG ?
5.73

Here is the next sequence: TCGAGTGGGTTACGGGGGCATTCAGGGATGAAGA
3.12

Field entry: ATCGTAAGGTCGTGAGGTGAGTATACAGAAAGGC
3.29

Lookup ATATGTAGGTTAGGGTCCTTCAGAAAGTAGGGAA
0.72

Next sequence up: ATATGTAGGTTAGGATCATTCAGAAAGTAGGGAA
0.758

What about this sequence? TCTAGTTGGTCACGGGGGTCACACACGACGGGTA
6.59

Also need GCTGCTAGGTCATGTTGGTCAGCTAACGGGTACG , thanks.
2.42

Now give it for CTATGTAGGTAAAGGGGGTCATTCAGTTTGAAAG too.
6.13

Same read-out for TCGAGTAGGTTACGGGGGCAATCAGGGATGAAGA ?
2.99

Now the sequence GCTTACGGGTCAAAGGTTACAGCATGAATAGAAT
8.5

Subsequent entry: ATATGCAGGTTATCGGGTCATTCAGTTTGCGCAT
4.1

Try CTATGTAGGTTAAGGCGGTCATTCAGTTTGAAAG next.
0.782

Same thing, different sequence: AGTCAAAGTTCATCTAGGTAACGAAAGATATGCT
4.34

Param item: CCGAGTAGGTTACGAGGGGGCATTGAGTGCGAAT
2.91

Okay, and CCGAGTAGGTTACGAAGGGGCATTCAGTGCGAAT ?
1.04

Same lookup for TGGAGTAGGTTACGGGGGCATTCAGGGATGAAGA , please.
3.46
